molecular target: p38 MAPKα isoform (MAPK14: Invitrogen) (Homo sapiens); assay: p38 MAPKα enzyme inhibition assay (FRET, Z-LYTE, via MAPKAP-K2 activation); conditions: 2 hr pre-incubation, ATP 10.0 μM; read-out: Enzyme Inhibition IC50 p38α
Sequence (Q16539 whole entry, canonical isoform): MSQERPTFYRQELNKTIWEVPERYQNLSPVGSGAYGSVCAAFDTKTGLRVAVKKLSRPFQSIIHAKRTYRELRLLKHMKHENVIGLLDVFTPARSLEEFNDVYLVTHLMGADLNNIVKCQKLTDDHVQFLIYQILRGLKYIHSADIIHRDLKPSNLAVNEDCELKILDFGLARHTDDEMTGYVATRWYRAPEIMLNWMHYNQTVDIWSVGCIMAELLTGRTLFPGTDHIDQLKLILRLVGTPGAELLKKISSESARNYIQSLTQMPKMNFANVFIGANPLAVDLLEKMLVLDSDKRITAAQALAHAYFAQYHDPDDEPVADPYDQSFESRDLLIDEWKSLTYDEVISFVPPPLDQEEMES
pIC50: −log10 of the molar value.
measure.name: pIC50

Record excerpt, results attached:
In [3]: df
Out[3]:
                  compound_structure_string  measure_name  numeric_value
0  COCC(=O)Nc1cc(Oc2ccc(NC(=O)Nc3cc(C(C)(C)C)nn3-c3cccc(OC)c3)c3ccccc23)ccn1         pIC50           7.82
1  CNC(=O)Nc1cc(Oc2ccc(NC(=O)Nc3cc(C(C)(C)C)nn3-c3ccc(OC)nc3)c(C)c2C)ccn1         pIC50           7.51
2  CCNC(=O)Nc1cc(Cc2ccc(NC(=O)Nc3cc(C(C)(C)C)nn3-c3ccc(C)cc3)c3ccccc23)ccn1         pIC50           7.69

(I) COCC(=O)Nc1cc(Oc2ccc(NC(=O)Nc3cc(C(C)(C)C)nn3-c3cc(OC)cc(OC)c3)c3ccccc23)ccn1
(II) CN1CCN(C(=O)Nc2cc(Oc3ccc(NC(=O)Nc4cc(C(C)(C)C)nn4-c4ccc(S(C)(=O)=O)cc4)c4ccccc34)ccn2)CC1
(III) COCC(=O)Nc1cc(Oc2ccc(NC(=O)Nc3cc(C(C)(C)C)nn3-c3ccc(SC)cc3)c3ccccc23)ccn1
(IV) COc1ccc(-n2nc(C(C)(C)C)cc2NC(=O)Nc2ccc(Oc3ccnc(NC(=O)N4CCN(C)CC4)c3)c3ccccc23)cc1
Problem: I would appreciate it if you could sort these 4 molecules by pIC50, starting from the smallest number. Put the labels in the order asked and list them.
Result: I, III, IV, II

---

Molecular target: Recombinant, phosphorylated p38 MAPKγ (MAPK12:Invitrogen) (Homo sapiens, UniProt P53778)
Construct: purchased Invitrogen
Sequence (P53778 1-367): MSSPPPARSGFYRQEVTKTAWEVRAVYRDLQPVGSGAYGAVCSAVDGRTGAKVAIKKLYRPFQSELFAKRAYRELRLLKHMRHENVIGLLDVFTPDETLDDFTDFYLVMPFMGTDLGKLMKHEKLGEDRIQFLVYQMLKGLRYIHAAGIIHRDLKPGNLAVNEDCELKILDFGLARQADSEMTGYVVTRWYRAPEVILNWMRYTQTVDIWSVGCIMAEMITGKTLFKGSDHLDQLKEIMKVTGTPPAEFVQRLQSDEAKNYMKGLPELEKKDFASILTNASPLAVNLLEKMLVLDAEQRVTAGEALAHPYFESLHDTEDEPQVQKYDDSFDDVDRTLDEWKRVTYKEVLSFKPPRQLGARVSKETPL
Experiment: p38 MAPKγ enzyme inhibition assay (FRET, Z-LYTE)
Format: biochemical
Settings: 2 hr pre-incubation, ATP 100 μM; read-out: Enzyme Inhibition IC50 p38γ
measure.name: IC50 (µM)

In [3]: df
Out[3]:
                  compound_structure_string                               test_system  numeric_value
0  COCC(=O)Nc1cc(Oc2ccc(NC(=O)Nc3cc(C4(C)CC4)nn3-c3ccc(C)cc3)c3ccccc23)ccn1  Recombinant, phosphorylated p38 MAPKγ (MAPK12:Invitrogen) (Homo sapiens, UniProt P53778)           3.01

(I) COCC(=O)Nc1cc(Oc2ccc(NC(=O)Nc3cc(C(F)(F)F)nn3-c3ccc(C)cc3)c3ccccc23)ccn1
(II) COCC(=O)Nc1cc(Oc2ccc(NC(=O)Nc3cc(C(C)(C)C)nn3-c3ccc(O)cc3)c3ccccc23)ccn1
Problem: Hi, I'm comparing I with II and wondering which one has the bigger number for IC50. Any idea? Kindly state the label of the option you pick.
Result: I

(P) COCC(=O)Nc1cc(Oc2ccc(NC(=O)Nc3cc(-c4ccccc4)nn3-c3ccccc3)c3ccccc23)ccn1
(Q) COCCOCC(=O)Nc1cc(C(=O)c2ccc(NC(=O)Nc3cc(C(C)(C)C)nn3-c3ccc(C)cc3)c3ccccc23)ccn1
(R) CNC(=O)Nc1cc(Oc2ccc(NC(=O)Nc3cc(C(C)(C)C)nn3-c3ccc(OC)cc3)c3ccccc23)ccn1
Problem: Order the items by recorded IC50; the first position goes to the largest value. Put the labels in the order asked and list them.
Result: Q, P, R

---

tested on: Differentiated U937 cells; assay: MTT assay: cell viability on exposure to test compounds; type: cell-based, human; conditions: percentage loss of cell viability vs vehicle; 1 μg/mL, 4 hr, 5% FCS
Overview of recorded MTT Assay (Viability) 4 h d-U937 for various molecules
Write it as a number; the unit % goes unstated.

Record excerpt, results attached:
>>> print(df.to_string())
                  compound_structure_string                      measure_name  output_unit  numeric_value
0  COCC(=O)Nc1cc(Oc2ccc(NC(=O)Nc3cc(C(C)(C)C)nn3-c3ccc(OC)cc3)c3ccccc23)ccn1  MTT Assay (Viability) 4 h d-U937            %          −28.4
1  COCC(=O)Nc1cc(Oc2ccc(NC(=O)Nc3cc(C(C)(C)C)nn3-c3ccc(C)nc3)c3ccccc23)ccn1  MTT Assay (Viability) 4 h d-U937            %           −3.4
2  COc1ccc(-n2nc(C(C)(C)C)cc2NC(=O)Nc2ccc(Oc3ccnc(NC(=O)CO)c3)c3ccccc23)cc1  MTT Assay (Viability) 4 h d-U937            %           −3.9
3  COCC(=O)Nc1cc(Oc2ccc(NC(=O)Nc3cc(C(C)(C)C)nn3-c3ccc(OC)c(Cl)c3)c3ccccc23)ccn1  MTT Assay (Viability) 4 h d-U937            %            0.1
4  CC(C)(C)c1cc(NC(=O)Nc2ccc(Oc3ccnc(NC(=O)N4CCCC4)c3)c3ccccc23)n(-c2ccc(O)cc2)n1  MTT Assay (Viability) 4 h d-U937            %          −15.4
5  CNC(=O)Nc1cc(Oc2ccc(NC(=O)Nc3cc(C(C)(C)C)nn3-c3ccc(OC)nc3)c(C)c2C)ccn1  MTT Assay (Viability) 4 h d-U937            %          −12.6
6  COCC(=O)Nc1cc(Oc2ccc(NC(=O)Nc3cc(C(F)(F)C(F)(F)F)nn3-c3ccc(C)cc3)c3ccccc23)ccn1  MTT Assay (Viability) 4 h d-U937            %           −6.3
7  COCC(=O)Nc1cc(Oc2ccc(NC(=O)Nc3cc(C(C)(C)C)nn3-c3ccc(OC)nc3)c3ccccc23)ccn1  MTT Assay (Viability) 4 h d-U937            %          −16.7

Problem: Consider the molecule CNC(=O)Nc1cc(Oc2ccc(NC(=O)Nc3cc(C(C)(C)C)nn3-c3ccc(O)nc3)c(C)c2C)ccn1 and give its measured MTT Assay (Viability) 4 h d-U937.
Result: −1.1

Problem: Consider the molecule COCC(=O)Nc1cc(COc2ccc(NC(=O)Nc3cc(C(C)(C)C)nn3-c3ccc(OC)cc3)c(C)c2C)ccn1 and give its measured MTT Assay (Viability) 4 h d-U937.
Result: 11.3

---

biological target: Recombinant, phosphorylated p38 MAPKγ (MAPK12:Invitrogen) (Homo sapiens); experiment: p38 MAPKγ enzyme inhibition assay (FRET, Z-LYTE); conditions: 2 hr pre-incubation, ATP 100 μM; read-out: Enzyme Inhibition IC50 p38γ
pIC50: −log10 of the molar value.
measure.name: pIC50

(a) CNC(=O)Nc1cc(Oc2ccc(NC(=O)Nc3cc(C(C)(C)C)nn3-c3ccc(O)cc3)c3ccccc23)ccn1
(b) CCNC(=O)Nc1cc(Cc2ccc(NC(=O)Nc3cc(C(C)(C)C)nn3-c3ccc(C)cc3)c3ccccc23)ccn1
Problem: Lab note: check whether a or b has the lower measured pIC50. Kindly state the label of the option you pick.
Result: b

---

Target: Recombinant, phosphorylated p38 MAPKγ (MAPK12:Invitrogen) (Homo sapiens, UniProt P53778)
Sequence (P53778 1-367): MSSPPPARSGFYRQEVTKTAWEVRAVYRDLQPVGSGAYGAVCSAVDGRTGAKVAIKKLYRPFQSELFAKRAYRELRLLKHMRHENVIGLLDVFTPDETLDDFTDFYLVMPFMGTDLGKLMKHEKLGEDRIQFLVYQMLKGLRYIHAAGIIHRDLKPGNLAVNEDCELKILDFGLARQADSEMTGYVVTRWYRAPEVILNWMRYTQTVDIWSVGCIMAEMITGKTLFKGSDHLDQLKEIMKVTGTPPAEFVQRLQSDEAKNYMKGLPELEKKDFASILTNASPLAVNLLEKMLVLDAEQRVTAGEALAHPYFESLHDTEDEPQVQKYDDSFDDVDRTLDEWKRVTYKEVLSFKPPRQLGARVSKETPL
Assay: p38 MAPKγ enzyme inhibition assay (FRET, Z-LYTE)
Details: 2 hr pre-incubation, ATP 100 μM; read-out: Enzyme Inhibition IC50 p38γ
pIC50: −log10 of the molar value.
measure.name: pIC50

>>> df
                                   compound                               test_system  numeric_value
0  CCNC(=O)Nc1cc(C(=O)c2ccc(NC(=O)Nc3cc(C(C)(C)C)nn3-c3ccc(C)cc3)c3ccccc23)ccn1 [Example 67]  Recombinant, phosphorylated p38 MAPKγ (MAPK12:Invitrogen) (Homo sapiens, UniProt P53778)           6.35
1  COCC(=O)Nc1cc(COc2ccc(NC(=O)Nc3cc(C(C)(C)C)nn3-c3ccc(OC)cc3)c(C)c2C)ccn1 [Example 59]  Recombinant, phosphorylated p38 MAPKγ (MAPK12:Invitrogen) (Homo sapiens, UniProt P53778)           5.38
2  COCC(=O)Nc1cc(Oc2ccc(NC(=O)Nc3cc(C(C)(C)C)nn3-c3ccc(OC)c(Cl)c3)c3ccccc23)ccn1 [Example 54]  Recombinant, phosphorylated p38 MAPKγ (MAPK12:Invitrogen) (Homo sapiens, UniProt P53778)           6.70
3  COCC(=O)Nc1cc(COc2ccc(NC(=O)Nc3cc(C(C)(C)C)nn3-c3ccc(C)cc3)c(C)c2C)ccn1 [Example 58]  Recombinant, phosphorylated p38 MAPKγ (MAPK12:Invitrogen) (Homo sapiens, UniProt P53778)           6.48
4  COCC(=O)Nc1cc(Sc2ccc(NC(=O)Nc3cc(C(C)(C)C)nn3-c3ccc(C)cc3)c3ccccc23)ccn1 [Example 21]  Recombinant, phosphorylated p38 MAPKγ (MAPK12:Invitrogen) (Homo sapiens, UniProt P53778)           6.47
5  COCC(=O)Nc1cc(C(=O)c2ccc(NC(=O)Nc3cc(C(C)(C)C)nn3-c3ccc(C)cc3)c3ccccc23)ccn1 [Example 66]  Recombinant, phosphorylated p38 MAPKγ (MAPK12:Invitrogen) (Homo sapiens, UniProt P53778)           5.13
6  CNC(=O)Nc1cc(Oc2ccc(NC(=O)Nc3cc(C(C)(C)C)nn3-c3ccc(OC)cc3)c(C)c2C)ccn1 [Example 37]  Recombinant, phosphorylated p38 MAPKγ (MAPK12:Invitrogen) (Homo sapiens, UniProt P53778)           6.93
7  CC(C)(C)c1cc(NC(=O)Nc2ccc(Oc3ccnc(NC(N)=O)c3)c3ccccc23)n(-c2ccc(S(C)(=O)=O)cc2)n1 [Example 45]  Recombinant, phosphorylated p38 MAPKγ (MAPK12:Invitrogen) (Homo sapiens, UniProt P53778)           7.31
8  COc1ccc(-n2nc(C(C)(C)C)cc2NC(=O)Nc2ccc(Oc3ccnc(NC(=O)N4CCOCC4)c3)c3ccccc23)cn1 [Example 40]  Recombinant, phosphorylated p38 MAPKγ (MAPK12:Invitrogen) (Homo sapiens, UniProt P53778)           6.95
9  COCC(=O)Nc1cc(Oc2ccc(NC(=O)Nc3cc(C(C)(C)C)nn3-c3ccc(OC)nc3)c3ccccc23)ccn1 [Example 16]  Recombinant, phosphorylated p38 MAPKγ (MAPK12:Invitrogen) (Homo sapiens, UniProt P53778)           7.27

(P) COCC(=O)Nc1cc(Oc2ccc(NC(=O)Nc3cc(C(C)(C)C)nn3-c3cc(OC)cc(OC)c3)c3ccccc23)ccn1 [Example 53]
(Q) COCC(=O)Nc1cc(Oc2ccc(NC(=O)Nc3cc(C(C)(C)C)nn3-c3ccc(S(C)(=O)=O)cc3)c3ccccc23)ncn1 [Example 50]
(R) COCC(=O)Nc1cc(Oc2ccc(NC(=O)Nc3cc(C(C)(C)C)nn3-c3ccc(OC(F)(F)F)cc3)c3ccccc23)ccn1 [Example 41]
(S) CC(C)(C)c1cc(NC(=O)Nc2ccc(Oc3ccnc(NC(=O)N4CCOCC4)c3)c3ccccc23)n(-c2ccc(S(C)(=O)=O)cc2)n1 [Example 49]
Problem: Order the items by recorded pIC50; the first position goes to the largest value. Put the labels in the order asked and list them.
Result: Q, P, S, R
(Q: 7.41, P: 7.08, S: 6.73, R: 6.06)
